# MEASUREMENT_DESCRIPTION: Pharmacokinetic study in cynomolgus monkeys after oral (nasogastric) gavage, sublingual and intravenous administration
# Assay type: in vivo
# STUDY_CONDITIONS: cynomolgus monkey, plasma, other: sublingual, 5 mg/kg, Plasma Bumetanide Dibenzylamide concentration, monkey, SL, dose column 5 mg/kg (title 30 mg/kg), Fourth Formulation (Form 2), 0.00 h, individual animals
READOUT_KIND: concentration at 0 h (ng/mL)
Output spec: scalar in ng/mL, unitless text.

Enquiry: concentration at 0 h for CCCCNc1cc(C(=O)N(Cc2ccccc2)Cc2ccccc2)cc(S(N)(=O)=O)c1Oc1ccccc1 [Bumetanide Dibenzylamide] ?
Return: 0

* * *

# MEASUREMENT_DESCRIPTION: Pharmacokinetic study in cynomolgus monkeys after oral (nasogastric) gavage, sublingual and intravenous administration
# Type: in vivo
# STUDY_CONDITIONS: cynomolgus monkey, plasma, other: sublingual, 5 mg/kg, Plasma Bumetanide Dibenzylamide concentration, Median, monkey, SL, dose column 5 mg/kg (title 30 mg/kg), Fourth Formulation (Form 2), 2.0 h, N=4
# Protocol: A pharmacokinetic study was done in cynomolgus monkeys following single oral (nasogastric) gavage, sublingual, and intravenous administration. […] Calibration curves, blanks, and analytical QCs were prepared in monkey plasma (K2EDTA). The extracts were evaporated to dryness, reconstituted, and then analyzed by LC-MS/MS. The calibration range was 0.250-250 ng/mL for both analytes. If the criteria for either the calibration curve or the analytical QCs were not met, the analytical run was rejected. […]
READOUT_KIND: concentration at 2 h (ng/mL)
Output spec: scalar in ng/mL, unitless text.

Enquiry: concentration at 2 h for CCCCNc1cc(C(=O)N(Cc2ccccc2)Cc2ccccc2)cc(S(N)(=O)=O)c1Oc1ccccc1 [Bumetanide Dibenzylamide] ?
Return: 0

* * *

# MEASUREMENT_DESCRIPTION: Pharmacokinetic profile after single intravenous or oral gavage dose in rats
# STUDY_CONDITIONS: male, Hsd: Sprague Dawley, rat, plasma, iv, 10 mg/kg
READOUT_KIND: clearance
# number then unit; no other words

Enquiry: clearance for CCCCNc1cc(C(=O)N(Cc2ccccc2)Cc2ccccc2)cc(S(N)(=O)=O)c1Oc1ccccc1 [Bumetanide Dibenzylamide] ?
Return: 44.7 mL/min/kg

* * *

# MEASUREMENT_DESCRIPTION: Pharmacokinetic study in cynomolgus monkeys after oral (nasogastric) gavage, sublingual and intravenous administration
# Assay type: in vivo
# STUDY_CONDITIONS: both sexes, cynomolgus monkey, plasma, oral, 30 mg/kg, Plasma Bumetanide Dibenzylamide concentration, Mean, monkey, NG 30 mg/kg, First Formulation (Form 1), 2.00 h, N=4
READOUT_KIND: concentration at 2 h (ng/mL)
Output spec: scalar in ng/mL, unitless text.

Enquiry: concentration at 2 h for CCCCNc1cc(C(=O)N(Cc2ccccc2)Cc2ccccc2)cc(S(N)(=O)=O)c1Oc1ccccc1 [Bumetanide Dibenzylamide] ?
Return: 62.6

* * *

# MEASUREMENT_DESCRIPTION: Crossover pharmacokinetic study of Bumetanide Dibenzylamide formulations (IN, SL, IM, PO, SC, IR) in Beagle dogs, plasma LC-MS/MS
# Format: in vivo
# STUDY_CONDITIONS: both sexes, Beagle, dog, plasma, po, 30 mg, PO capsules, 30 mg, read-out: Tmax
READOUT_KIND: Tmax

Enquiry: Tmax for CCCCNc1cc(C(=O)N(Cc2ccccc2)Cc2ccccc2)cc(S(N)(=O)=O)c1Oc1ccccc1 [Bumetanide Dibenzylamide] ?
Return: 2 h

* * *

# MEASUREMENT_DESCRIPTION: Pharmacokinetic study in cynomolgus monkeys after oral (nasogastric) gavage, sublingual and intravenous administration
# Type: in vivo
# STUDY_CONDITIONS: cynomolgus monkey, plasma, other: sublingual, 5 mg/kg, Plasma Bumetanide Dibenzylamide concentration, Median, monkey, SL, dose column 5 mg/kg (title 30 mg/kg), Fourth Formulation (Form 2), 0.50 h, N=4
READOUT_KIND: concentration at 0.5 h

Enquiry: concentration at 0.5 h for CCCCNc1cc(C(=O)N(Cc2ccccc2)Cc2ccccc2)cc(S(N)(=O)=O)c1Oc1ccccc1 [Bumetanide Dibenzylamide] ?
Return: 0 ng/mL

* * *

# MEASUREMENT_DESCRIPTION: Crossover pharmacokinetic study of Bumetanide Dibenzylamide formulations (IN, SL, IM, PO, SC, IR) in Beagle dogs, plasma LC-MS/MS
# Assay type: in vivo
# STUDY_CONDITIONS: both sexes, Beagle, dog, plasma, po, 30 mg, PO capsules, 30 mg, read-out: t½ (converted)
READOUT_KIND: half-life (h)
Output spec: scalar in h, unitless text.

Enquiry: half-life for CCCCNc1cc(C(=O)N(Cc2ccccc2)Cc2ccccc2)cc(S(N)(=O)=O)c1Oc1ccccc1 [Bumetanide Dibenzylamide] ?
Return: 5.89

* * *

# MEASUREMENT_DESCRIPTION: Pharmacokinetic study in cynomolgus monkeys after oral (nasogastric) gavage, sublingual and intravenous administration
# Type: in vivo
# STUDY_CONDITIONS: both sexes, cynomolgus monkey, plasma, oral, 30 mg/kg, Plasma Bumetanide Dibenzylamide concentration, Median, monkey, NG 30 mg/kg, First Formulation (Form 1), 0.50 h, N=4
READOUT_KIND: concentration at 0.5 h (ng/mL)
Output spec: scalar in ng/mL, unitless text.

Enquiry: concentration at 0.5 h for CCCCNc1cc(C(=O)N(Cc2ccccc2)Cc2ccccc2)cc(S(N)(=O)=O)c1Oc1ccccc1 [Bumetanide Dibenzylamide] ?
Return: 2.82

* * *

# MEASUREMENT_DESCRIPTION: Oral delivery of unformulated Bumetanide Dibenzylamide in Beagle dogs, pharmacokinetics and bioavailability
# Type: in vivo
# STUDY_CONDITIONS: Beagle, dog, plasma, oral, 30 mg/kg, Plasma Bumetanide Dibenzylamide concentration, oral non-formulated 30 mg/kg, 8 h
READOUT_KIND: concentration at 8 h (ng/mL)
Output spec: scalar in ng/mL, unitless text.

Enquiry: concentration at 8 h for CCCCNc1cc(C(=O)N(Cc2ccccc2)Cc2ccccc2)cc(S(N)(=O)=O)c1Oc1ccccc1 [Bumetanide Dibenzylamide] ?
Return: 101

* * *

# MEASUREMENT_DESCRIPTION: Nasal solution solubility evaluation in solvent/co-solvent systems (HPLC-UV)
# Assay type: physicochemical
# STUDY_CONDITIONS: organic solvent or mixture, thermodynamic from solid; Caprylocaproyl Polyoxylglycerides (Labrasol ALF), Composition 8
READOUT_KIND: solubility at 8 h

Enquiry: solubility at 8 h for CCCCNc1cc(C(=O)N(Cc2ccccc2)Cc2ccccc2)cc(S(N)(=O)=O)c1Oc1ccccc1 [Bumetanide Dibenzylamide] ?
Return: ~66 mg/mL

* * *

# MEASUREMENT_DESCRIPTION: Pharmacokinetic study in cynomolgus monkeys after oral (nasogastric) gavage, sublingual and intravenous administration
# Type: in vivo
# STUDY_CONDITIONS: cynomolgus, cynomolgus monkey, plasma, intravenous, 2 mg/kg, Plasma Bumetanide Dibenzylamide concentration, Median, monkey, dose column 2 mg/kg (title 30 mg/kg), Third Formulation (Form 4), 1.00 h, N=4
READOUT_KIND: concentration at 1 h (ng/mL)
Output spec: scalar in ng/mL, unitless text.

Enquiry: concentration at 1 h for CCCCNc1cc(C(=O)N(Cc2ccccc2)Cc2ccccc2)cc(S(N)(=O)=O)c1Oc1ccccc1 [Bumetanide Dibenzylamide] ?
Return: 504

* * *

# MEASUREMENT_DESCRIPTION: Pharmacokinetic study in cynomolgus monkeys after oral (nasogastric) gavage, sublingual and intravenous administration
# Format: in vivo
# STUDY_CONDITIONS: cynomolgus monkey, plasma, intravenous, 2 mg/kg, Plasma Bumetanide Dibenzylamide concentration, Mean, monkey, dose column 2 mg/kg (title 30 mg/kg), Third Formulation (Form 4), 24.00 h, N=4
READOUT_KIND: concentration at 24 h (ng/mL)
Output spec: scalar in ng/mL, unitless text.

Enquiry: concentration at 24 h for CCCCNc1cc(C(=O)N(Cc2ccccc2)Cc2ccccc2)cc(S(N)(=O)=O)c1Oc1ccccc1 [Bumetanide Dibenzylamide] ?
Return: 3.57

* * *

# MEASUREMENT_DESCRIPTION: Pharmacokinetic study in cynomolgus monkeys after oral (nasogastric) gavage, sublingual and intravenous administration
# Assay type: in vivo
# STUDY_CONDITIONS: cynomolgus monkey, plasma, other: sublingual, 5 mg/kg, Plasma Bumetanide Dibenzylamide concentration, Median, monkey, SL, dose column 5 mg/kg (title 30 mg/kg), Fourth Formulation (Form 2), 0.25 h, N=4
READOUT_KIND: concentration at 0.25 h (ng/mL)
Output spec: scalar in ng/mL, unitless text.

Enquiry: concentration at 0.25 h for CCCCNc1cc(C(=O)N(Cc2ccccc2)Cc2ccccc2)cc(S(N)(=O)=O)c1Oc1ccccc1 [Bumetanide Dibenzylamide] ?
Return: 0

* * *

# MEASUREMENT_DESCRIPTION: Pharmacokinetic study in cynomolgus monkeys after oral (nasogastric) gavage, sublingual and intravenous administration
# Assay type: in vivo
# STUDY_CONDITIONS: both sexes, cynomolgus monkey, plasma, oral, 30 mg/kg, Plasma Bumetanide Dibenzylamide concentration, Median, monkey, NG 30 mg/kg, Second Formulation (Form 3), 0.50 h, N=4
# Method: A pharmacokinetic study was done in cynomolgus monkeys following single oral (nasogastric) gavage, sublingual, and intravenous administration. […] Calibration curves, blanks, and analytical QCs were prepared in monkey plasma (K2EDTA). The extracts were evaporated to dryness, reconstituted, and then analyzed by LC-MS/MS. The calibration range was 0.250-250 ng/mL for both analytes. If the criteria for either the calibration curve or the analytical QCs were not met, the analytical run was rejected. […]
READOUT_KIND: concentration at 0.5 h
# number then unit; no other words

Enquiry: concentration at 0.5 h for CCCCNc1cc(C(=O)N(Cc2ccccc2)Cc2ccccc2)cc(S(N)(=O)=O)c1Oc1ccccc1 [Bumetanide Dibenzylamide] ?
Return: 2.44 ng/mL
